- Test system: SUDHL-5
- Assay Info: Cell viability assay (CellTiter-Glo, ATP quantification)
- Assay type: cell-based, human
- Condition Info: Homo sapiens, SU-DHL-5, 96 h, SUDHL-5, 96H, cell viability by ATP quantification; read-out: 50% inhibitory concentration (IC50)
Measure Name: IC50 (nM)
Numeric answer only, unit nM assumed.

Can you look up the measured IC50 of `O=C(O)c1ccc(-n2nc(-c3ccccc3O)nc2-c2ccccc2O)cc1` for me?
1480

Which IC50 value belongs to `CC(=O)N(O)CCCCCNC(=O)CCC(=O)N(O)CCCCCNC(=O)CCC(=O)N(O)CCCCCN` ?
1550
